- target or system: Vascular endothelial growth factor receptor 2 (Homo sapiens)
- Sequence (P35968 whole entry): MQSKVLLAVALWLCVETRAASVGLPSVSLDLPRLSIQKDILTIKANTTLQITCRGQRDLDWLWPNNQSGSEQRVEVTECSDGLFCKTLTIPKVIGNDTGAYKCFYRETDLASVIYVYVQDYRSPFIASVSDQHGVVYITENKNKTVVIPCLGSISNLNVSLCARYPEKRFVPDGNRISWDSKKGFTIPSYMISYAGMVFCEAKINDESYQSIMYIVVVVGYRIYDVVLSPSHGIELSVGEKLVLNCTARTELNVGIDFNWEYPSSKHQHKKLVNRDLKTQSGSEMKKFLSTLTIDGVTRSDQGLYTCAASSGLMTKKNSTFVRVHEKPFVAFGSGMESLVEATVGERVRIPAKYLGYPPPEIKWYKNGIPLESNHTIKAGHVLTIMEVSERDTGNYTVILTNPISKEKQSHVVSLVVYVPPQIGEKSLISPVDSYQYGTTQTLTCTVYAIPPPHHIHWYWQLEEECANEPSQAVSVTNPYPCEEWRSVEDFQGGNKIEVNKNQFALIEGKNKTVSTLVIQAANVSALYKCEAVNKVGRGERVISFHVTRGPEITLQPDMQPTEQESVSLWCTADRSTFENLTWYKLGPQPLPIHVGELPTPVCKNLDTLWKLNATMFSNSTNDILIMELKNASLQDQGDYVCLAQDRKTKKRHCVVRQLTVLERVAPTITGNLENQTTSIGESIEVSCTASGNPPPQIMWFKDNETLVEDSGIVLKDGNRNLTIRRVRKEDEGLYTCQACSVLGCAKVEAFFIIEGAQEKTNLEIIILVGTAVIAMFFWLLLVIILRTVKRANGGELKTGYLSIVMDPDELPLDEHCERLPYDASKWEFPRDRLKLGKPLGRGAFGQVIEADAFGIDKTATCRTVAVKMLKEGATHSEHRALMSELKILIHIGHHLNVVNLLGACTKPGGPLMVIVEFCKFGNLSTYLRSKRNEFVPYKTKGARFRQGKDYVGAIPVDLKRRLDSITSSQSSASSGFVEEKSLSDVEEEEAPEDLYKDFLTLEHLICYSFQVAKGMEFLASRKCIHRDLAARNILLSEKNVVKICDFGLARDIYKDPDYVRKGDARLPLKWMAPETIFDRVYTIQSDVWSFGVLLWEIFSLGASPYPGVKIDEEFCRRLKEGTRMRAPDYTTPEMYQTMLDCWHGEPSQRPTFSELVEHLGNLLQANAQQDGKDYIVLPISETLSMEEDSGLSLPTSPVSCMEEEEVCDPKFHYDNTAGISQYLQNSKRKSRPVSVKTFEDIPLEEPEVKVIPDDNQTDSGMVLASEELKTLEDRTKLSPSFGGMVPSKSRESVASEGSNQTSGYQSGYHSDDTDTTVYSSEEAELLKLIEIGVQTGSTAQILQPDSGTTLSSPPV
- assay comment: biochemical
- Description: Inhibition of recombinant GST tagged VEGFR2 (789 to 1356) (unknown origin) transfected in insect sf9 cells after 120 mins by wallac counting analysis
Please go through the items and note down their pIC50.
Value format note: pIC50 is -log10 of concentration (mol/L); just state the number.

Prompt: Could you tell me which pIC50 is on file for CCNC(=O)Nc1ccc(-c2cc(NC(=O)c3ccc(N4CCN(C)CC4)cc3)[nH]n2)cc1 ?
Response: 7.00

Prompt: Could you tell me which pIC50 is on file for Cc1cc(NC(=O)Nc2ccc(-c3cc(NC(=O)c4ccc(N5CCN(C)CC5)cc4)[nH]n3)cc2)no1 ?
Response: 7.51

Prompt: Could you tell me which pIC50 is on file for Cc1nc(Nc2cc(-c3ccc(CNC(=O)Nc4cc(C(C)(C)C)on4)cc3)n[nH]2)cc(N2CCN(C)CC2)n1 ?
Response: 7.92

Prompt: Could you tell me which pIC50 is on file for Cc1cc(NC(=O)NCc2ccc(-c3cc(NC(=O)c4ccc(N5CCN(C)CC5)cc4)[nH]n3)cc2)no1 ?
Response: 7.30

Prompt: Could you tell me which pIC50 is on file for CC(C)(C)c1cc(NC(=O)Nc2ccc(-c3cc(NC(=O)c4ccc(OCCN5CCOCC5)cc4)[nH]n3)cc2)no1 ?
Response: 7.66

Prompt: Could you tell me which pIC50 is on file for CN1CCN(Cc2ccc(C(=O)Nc3cc(-c4ccc(CNC(=O)Nc5ccccc5)cc4)n[nH]3)cc2)CC1 ?
Response: 7.09

Prompt: Could you tell me which pIC50 is on file for CN1CCN(c2ccc(C(=O)Nc3cc(-c4ccc(NC(=O)Nc5ccccc5)cc4)n[nH]3)cc2)CC1 ?
Response: 7.59

Prompt: Could you tell me which pIC50 is on file for Cc1nc(Nc2cc(-c3ccc(NC(=O)Nc4ccccc4)cc3)n[nH]2)cc(N2CCN(C)CC2)n1 ?
Response: 6.21

Prompt: Could you tell me which pIC50 is on file for Cc1nc(Nc2cc(-c3ccc(CNC(=O)Nc4cc(C(C)(C)C)on4)cc3)n[nH]2)cc(N2CCN(CCO)CC2)n1 ?
Response: 7.30

Prompt: Could you tell me which pIC50 is on file for CN1CCN(c2ccc(C(=O)Nc3cc(-c4ccc(NC(=O)Nc5cc(C(C)(C)C)on5)cc4)n[nH]3)cc2)CC1 ?
Response: 7.92

Prompt: Could you tell me which pIC50 is on file for O=C(NCc1ccc(-c2cc(NC(=O)c3ccc(OCCN4CCOCC4)cc3)[nH]n2)cc1)Nc1ccc(Cl)cc1 ?
Response: 7.15

Prompt: Could you tell me which pIC50 is on file for Cc1nc(Nc2cc(-c3ccc(CNC(=O)Nc4cccc(Cl)c4)cc3)n[nH]2)cc(N2CCNCC2)n1 ?
Response: 7.42

Prompt: Could you tell me which pIC50 is on file for CN1CCN(c2ccc(C(=O)Nc3cc(-c4ccc(NC(=O)NC5CC5)cc4)n[nH]3)cc2)CC1 ?
Response: 6.52

###

- target or system: Receptor-type tyrosine-protein kinase FLT3 (Homo sapiens, UniProt P36888, ITD)
- Sequence (P36888 whole entry, looked up, change not shown): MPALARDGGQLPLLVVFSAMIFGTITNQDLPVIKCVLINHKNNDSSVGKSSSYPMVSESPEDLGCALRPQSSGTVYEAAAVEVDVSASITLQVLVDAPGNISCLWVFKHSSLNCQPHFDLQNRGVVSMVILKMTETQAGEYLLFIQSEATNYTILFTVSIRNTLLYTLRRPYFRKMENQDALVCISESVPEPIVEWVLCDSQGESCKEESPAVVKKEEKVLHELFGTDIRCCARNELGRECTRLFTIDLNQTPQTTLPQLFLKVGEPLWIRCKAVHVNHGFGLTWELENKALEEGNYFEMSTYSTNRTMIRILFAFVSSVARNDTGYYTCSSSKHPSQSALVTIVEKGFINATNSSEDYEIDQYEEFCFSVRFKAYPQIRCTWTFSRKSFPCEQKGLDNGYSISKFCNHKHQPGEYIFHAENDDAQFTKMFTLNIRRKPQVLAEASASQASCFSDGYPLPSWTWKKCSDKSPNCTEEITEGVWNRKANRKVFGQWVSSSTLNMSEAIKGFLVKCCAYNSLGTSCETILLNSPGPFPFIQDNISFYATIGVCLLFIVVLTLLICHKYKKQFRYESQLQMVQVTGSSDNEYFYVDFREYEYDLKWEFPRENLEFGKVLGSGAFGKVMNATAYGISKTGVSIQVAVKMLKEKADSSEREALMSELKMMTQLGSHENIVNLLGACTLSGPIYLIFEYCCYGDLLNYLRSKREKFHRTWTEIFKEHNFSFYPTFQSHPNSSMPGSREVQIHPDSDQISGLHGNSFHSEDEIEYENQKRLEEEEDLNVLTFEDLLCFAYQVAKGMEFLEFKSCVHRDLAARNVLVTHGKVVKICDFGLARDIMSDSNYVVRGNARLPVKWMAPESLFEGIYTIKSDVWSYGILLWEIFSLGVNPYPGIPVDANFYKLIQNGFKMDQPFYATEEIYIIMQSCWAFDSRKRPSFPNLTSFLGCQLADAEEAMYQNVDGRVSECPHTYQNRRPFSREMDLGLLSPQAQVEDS
- assay comment: Inhibition of FLT3/ITD mutant-mediated stat5 phosphorylation in human MV4-11 cells after 1 hr by Western blot analysis
- Type: cell-based
parameter: IC50 (nM)
Response body: numeric value in nM, unit text excluded.

Prompt: Could you tell me which IC50 is on file for CC(C)(C)c1cc(NC(=O)NCc2ccc(-c3cc(NC(=O)c4ccc(OCCN5CCOCC5)cc4)[nH]n3)cc2)no1 ?
Response: 1
